- assay_remarks: qHTS Assay for Small Molecule Inhibitors of Mitochondrial Division or Activators of Mitochondrial Fusion; further: nearly all actives have a fitted effect of over 45% in size
- experimental_conditions: S. cerevisiae fusion-defective mutant growth rescue, CellTiterGlo 48 h; series mostly up to 46.1 µM
Screen size: about 320,000 compounds; about 740 (0.23%) were called active. Inconclusive results (about 2%) are left out. The call rests on the fitted dose curve; in most records, active means well fitted activation curve with a large enough effect; inconclusive means small, poorly fitted or top-dose-only effect; inactive means no such curve, though single readings can be large or run the other way. What follows is part of a selection rich in actives, with near analogues and random picks from the rest.
Just give me one of these, please: Yes = active, No = inactive

Incoming: Write down the call the test reported for this compound. Item: Cc1cc(C(=O)Nc2nnc(C3CC3)s2)c(C)s1
Outgoing: No

Incoming: Write down the call the test reported for this compound. Item: CC1(C)Cc2ccccc2/C(=C/C(=O)c2ccccc2)N1
Outgoing: No

Incoming: Write down the call the test reported for this compound. Item: CN(C)CCN=c1cc(-c2ccccc2)oc2ccc(Cl)cc12
Outgoing: No

Incoming: Write down the call the test reported for this compound. Item: COCCCNC(=O)c1ccc(CNS(=O)(=O)c2ccc(NC(C)=O)cc2)cc1
Outgoing: Yes

Incoming: Write down the call the test reported for this compound. Item: CSCCC(NS(=O)(=O)c1ccc(C)cc1)C(=O)N1CCCC1 (centres undefined)
Outgoing: Yes

Incoming: Write down the call the test reported for this compound. Item: COc1cc2c(cc1OC)/C(=C/C(=O)c1ccc(NC(C)=O)cc1)NCC2
Outgoing: No

Incoming: Write down the call the test reported for this compound. Item: COc1ccc(OC)c(S(=O)(=O)n2c([N+](=O)[O-])cnc2C)c1
Outgoing: No

Incoming: Write down the call the test reported for this compound. Item: Cc1ccc(N2CCN(C3=NC(=O)/C(=C\c4cccs4)S3)CC2)cc1
Outgoing: Yes

Incoming: Write down the call the test reported for this compound. Item: CC(=O)c1cccc(NC(=O)C2CCCN2S(=O)(=O)c2cccc3nsnc23)c1 (centres undefined)
Outgoing: No

Incoming: Write down the call the test reported for this compound. Item: O=C(COC(=O)c1ccccc1Cl)NC1CCCCCCC1
Outgoing: No

Incoming: Write down the call the test reported for this compound. Item: CCCCNC(=O)C1CCC(CNS(=O)(=O)c2ccc(NC(C)=O)cc2)CC1 (centres undefined)
Outgoing: No

Incoming: Write down the call the test reported for this compound. Item: O=C(Nc1nnc(-c2ccccc2)o1)c1cc(-c2cccs2)nc2ccccc12
Outgoing: Yes

Incoming: Write down the call the test reported for this compound. Item: COc1ccc(S(=O)(=O)N2CCN(CC(=O)N3c4ccccc4CC3C)CC2)cc1OC (centres undefined)
Outgoing: No

Incoming: Write down the call the test reported for this compound. Item: Cc1csc(=Nc2ccccc2)n1CCO
Outgoing: No

Incoming: Write down the call the test reported for this compound. Item: COC(=O)c1c(NC(=O)CSc2nncs2)sc2c1CCCCC2
Outgoing: No

Incoming: Write down the call the test reported for this compound. Item: CCN1C(=O)[C@@H]2[C@@H](c3ccc(-c4cccc(Cl)c4)cc3)N3CCC[C@@]3(C(=O)OC)[C@@H]2C1=O
Outgoing: No

Incoming: Write down the call the test reported for this compound. Item: CSCC(NS(=O)(=O)c1ccc(C)cc1)C(=O)O (centres undefined)
Outgoing: No

Incoming: Write down the call the test reported for this compound. Item: COc1ccc(NS(=O)(=O)c2ccc(C)c(C(=O)N(C)Cc3ccc(OC)cc3OC)c2)cc1
Outgoing: No

Incoming: Write down the call the test reported for this compound. Item: Cc1cccc(C(=O)Nc2ccc(-c3nc4ncccc4o3)cc2C)c1
Outgoing: No

Incoming: Write down the call the test reported for this compound. Item: OCCn1c(-c2ccccc2)csc1=Nc1ccccc1
Outgoing: Yes

Incoming: Write down the call the test reported for this compound. Item: CCN(CC)c1ccc(NC(=O)CN2CCN(CC(=O)Nc3ccc(Cl)cc3)CC2)cc1
Outgoing: No

Incoming: Write down the call the test reported for this compound. Item: CCCC(C)C(=O)OCC(=O)Nc1c(Br)cc(C)cc1Br (centres undefined)
Outgoing: No

Incoming: Write down the call the test reported for this compound. Item: CS(=O)(=O)N1CCN=C1SCc1ccc(F)cc1
Outgoing: No

Incoming: Write down the call the test reported for this compound. Item: CCn1cc(/C=C(\NC(=O)c2ccc(C)cc2)C(=O)NCCN2CCOCC2)c2ccccc21
Outgoing: No

Incoming: Write down the call the test reported for this compound. Item: Cc1ccsc1/C=C1\SC(N2CCOCC2)=NC1=O
Outgoing: No

Incoming: Write down the call the test reported for this compound. Item: O=c1c(Cl)c(NCc2ccc(F)cc2Cl)cnn1C12CC3CC(CC(C3)C1)C2
Outgoing: No

Incoming: Write down the call the test reported for this compound. Item: Cc1ccc(C(CNC(=O)Nc2cccc(C)c2)N2CCN(C)CC2)cc1 (centres undefined)
Outgoing: No

Incoming: Write down the call the test reported for this compound. Item: Cn1cc(CCC(=O)NCc2ccc3c(c2)OCO3)c2ccccc21
Outgoing: No

Incoming: Write down the call the test reported for this compound. Item: CCc1c(C)[nH]c(=S)c(C#N)c1C
Outgoing: No

Incoming: Write down the call the test reported for this compound. Item: CCc1nccn1CCC(=O)N1CCCC(N2CCN(c3ccccc3F)CC2)C1 (centres undefined)
Outgoing: No

Incoming: Write down the call the test reported for this compound. Item: O=C(NCc1cccnc1)Nc1cccc(NC(=O)NCc2cccnc2)c1F
Outgoing: No

Incoming: Write down the call the test reported for this compound. Item: CC(=O)Nc1ccc(S(=O)(=O)NCCc2ccccc2)cc1
Outgoing: No

Incoming: Write down the call the test reported for this compound. Item: COc1ccc(CCNC(=O)CN2C(=O)CCSc3ccccc32)c(OC)c1
Outgoing: No

Incoming: Write down the call the test reported for this compound. Item: CCCCN(C)CCCNC(=O)c1cc(-c2cccs2)nc2ccccc12
Outgoing: No

Incoming: Write down the call the test reported for this compound. Item: N#Cc1nc(Cc2cccc3ccccc23)oc1NCc1ccc2c(c1)OCO2
Outgoing: Yes

Incoming: Write down the call the test reported for this compound. Item: Cc1ccc(N2CCN(/N=C/c3cccs3)CC2)cc1
Outgoing: No

Incoming: Write down the call the test reported for this compound. Item: Cc1ccc(O)c(CNc2nc3ccccc3n2C)c1
Outgoing: No

Incoming: Write down the call the test reported for this compound. Item: CCOc1ccc(-n2nc3ccc(NC(=O)c4ccc(OC)c(Cl)c4)cc3n2)cc1
Outgoing: No

Incoming: Write down the call the test reported for this compound. Item: Cc1csc(=NC(=O)c2ccccc2)n1CCO
Outgoing: No

* * *

- assay_remarks: qHTS Assay for Small Molecule Inhibitors of Mitochondrial Division or Activators of Mitochondrial Fusion; further: nearly all actives have a fitted effect of over 45% in size
- experimental_conditions: S. cerevisiae fusion-defective mutant growth rescue, CellTiterGlo 48 h; series mostly up to 46.1 µM
The whole screen tested about 320,000 compounds, of which about 740 (0.23%) were called active. Roughly 2% stayed inconclusive and do not appear here. The call rests on the fitted dose curve; in most records, active means well fitted activation curve with a large enough effect; inconclusive means small, poorly fitted or top-dose-only effect; inactive means no such curve, though single readings can be large or run the other way. The list comes from a sample in which actives are over-represented; it also holds close analogues and randomly drawn compounds.
Just give me one of these, please: active, inactive

Incoming: Write down the call the test reported for this compound. Item: Cc1ccc(C(=O)NC(=S)Nc2ccc3[nH]c(=O)[nH]c3c2)cc1C
Outgoing: inactive

Incoming: Write down the call the test reported for this compound. Item: CCC1=Nc2cc(C(=O)NCCCOC(C)C)ccc2Sc2ccc(C)cc21
Outgoing: inactive

Incoming: Write down the call the test reported for this compound. Item: O=C(CNc1cccc(S(=O)(=O)N2CCCCC2)c1)Nc1ccccc1F
Outgoing: inactive

Incoming: Write down the call the test reported for this compound. Item: Cc1ccc(C(=O)OC(C)CN2CCOCC2)cc1 (stereo unspecified)
Outgoing: active

Incoming: Write down the call the test reported for this compound. Item: CCOC(=O)C1=C(N)N(c2ccc(C)cc2)C2=C(C(=O)CCC2)C1c1cccs1 (stereo unspecified)
Outgoing: active

Incoming: Write down the call the test reported for this compound. Item: Cc1c(S(=O)(=O)N2CC(C)CC(C)C2)c(=O)n(C)c(=O)n1C (stereo unspecified)
Outgoing: inactive

Incoming: Write down the call the test reported for this compound. Item: COc1cc(C2CC(=O)c3cnc(NC(C)=O)nc3C2)cc(OC)c1OC (stereo unspecified)
Outgoing: inactive

Incoming: Write down the call the test reported for this compound. Item: Clc1ccc(C2[C@H]3CN(CC4CCCCC4)[C@H](c4ccccc4)C34CC2(c2cccnc2)C4)cn1 (stereo partly specified)
Outgoing: inactive

Incoming: Write down the call the test reported for this compound. Item: Nc1ncnc2c1c(I)cn2[C@@H]1C[C@H](N)[C@@H](O)[C@H]1O
Outgoing: inactive

Incoming: Write down the call the test reported for this compound. Item: Nc1ccc(Nc2cc(O)c3ncccc3c2)cc1
Outgoing: inactive

Incoming: Write down the call the test reported for this compound. Item: O=C1c2cccc3cccc(c23)C(=O)N1CCCCCc1n[nH]c(=S)o1
Outgoing: inactive

Incoming: Write down the call the test reported for this compound. Item: CCC(C)(C)n1nnnc1CN1CCN(c2nc3ccc(C)cc3cc2C#N)CC1
Outgoing: inactive

Incoming: Write down the call the test reported for this compound. Item: O=C1CSC(=O)N1CCOCCN1C(=O)CSC1=O
Outgoing: inactive

Incoming: Write down the call the test reported for this compound. Item: Cc1ccc(S(=O)(=O)N2CCCC(C(=O)N3CCN(C)CC3)C2)cc1 (stereo unspecified)
Outgoing: inactive

Incoming: Write down the call the test reported for this compound. Item: Cc1nnnn1/C(=C\c1ccccc1)C(=O)OCC(=O)N1CC2(C)CC1CC(C)(C)C2 (stereo unspecified)
Outgoing: inactive

Incoming: Write down the call the test reported for this compound. Item: O=C(CCCCCN1C(=O)c2cccc3cccc(c23)C1=O)NCc1ccco1
Outgoing: inactive

Incoming: Write down the call the test reported for this compound. Item: COc1ccc(C2CC(=O)Nc3c2c(=O)nc2c(C)cccn32)cc1OC (stereo unspecified)
Outgoing: inactive

Incoming: Write down the call the test reported for this compound. Item: CC(CN1CCOCC1)OC(=O)c1ccc(Cl)cc1Cl (stereo unspecified)
Outgoing: inactive

Incoming: Write down the call the test reported for this compound. Item: NC1CCN(O)C1=O (stereo unspecified)
Outgoing: inactive

Incoming: Write down the call the test reported for this compound. Item: O=C1CCCC2=C1C(c1cccs1)CC(=O)N2c1ccc(F)cc1 (stereo unspecified)
Outgoing: inactive

Incoming: Write down the call the test reported for this compound. Item: CCCC(C)NC(=O)C1CCN(C(=O)C2CC(=O)N(c3ccc(C)cc3)C2)CC1 (stereo unspecified)
Outgoing: inactive

Incoming: Write down the call the test reported for this compound. Item: NC(=O)C1CCN(Cc2nc3c(Br)cc(Br)cc3c(=O)[nH]2)CC1
Outgoing: inactive

Incoming: Write down the call the test reported for this compound. Item: O=C1Nc2ccccc2/C1=C/c1ccnc2ccccc12
Outgoing: inactive

Incoming: Write down the call the test reported for this compound. Item: Cc1cc(NC(=O)Nc2c[nH]c(=O)[nH]c2=O)ccc1Br
Outgoing: inactive

Incoming: Write down the call the test reported for this compound. Item: O=C(NC1CCCC1)C1CC(=O)N(c2ccc(F)cc2)C1 (stereo unspecified)
Outgoing: inactive

Incoming: Write down the call the test reported for this compound. Item: CCCCN(C(=O)C(CCSC)N1C(=O)c2ccccc2C1=O)c1c(N)n(CCC)c(=O)[nH]c1=O (stereo unspecified)
Outgoing: inactive

Incoming: Write down the call the test reported for this compound. Item: O=C(N/C(=C\c1ccc([N+](=O)[O-])cc1)C(=O)N1CCCCC1)c1ccco1
Outgoing: inactive

Incoming: Write down the call the test reported for this compound. Item: CCC(=O)Nc1ccc(-c2ccc(N3CCCCC3)nn2)cc1
Outgoing: active

Incoming: Write down the call the test reported for this compound. Item: c1n[nH]c(NCc2ccc3c(c2)OCO3)n1
Outgoing: inactive

Incoming: Write down the call the test reported for this compound. Item: CN(C)/C=C1/Nc2ccccc2C1=O
Outgoing: inactive

Incoming: Write down the call the test reported for this compound. Item: Cc1ccc(C)c(NS(=O)(=O)c2cc(Br)cnc2N)c1
Outgoing: inactive
